Nitric oxide synthase, inducible (Homo sapiens, UniProt P35228) IC50 data
Sequence (P35228 whole entry): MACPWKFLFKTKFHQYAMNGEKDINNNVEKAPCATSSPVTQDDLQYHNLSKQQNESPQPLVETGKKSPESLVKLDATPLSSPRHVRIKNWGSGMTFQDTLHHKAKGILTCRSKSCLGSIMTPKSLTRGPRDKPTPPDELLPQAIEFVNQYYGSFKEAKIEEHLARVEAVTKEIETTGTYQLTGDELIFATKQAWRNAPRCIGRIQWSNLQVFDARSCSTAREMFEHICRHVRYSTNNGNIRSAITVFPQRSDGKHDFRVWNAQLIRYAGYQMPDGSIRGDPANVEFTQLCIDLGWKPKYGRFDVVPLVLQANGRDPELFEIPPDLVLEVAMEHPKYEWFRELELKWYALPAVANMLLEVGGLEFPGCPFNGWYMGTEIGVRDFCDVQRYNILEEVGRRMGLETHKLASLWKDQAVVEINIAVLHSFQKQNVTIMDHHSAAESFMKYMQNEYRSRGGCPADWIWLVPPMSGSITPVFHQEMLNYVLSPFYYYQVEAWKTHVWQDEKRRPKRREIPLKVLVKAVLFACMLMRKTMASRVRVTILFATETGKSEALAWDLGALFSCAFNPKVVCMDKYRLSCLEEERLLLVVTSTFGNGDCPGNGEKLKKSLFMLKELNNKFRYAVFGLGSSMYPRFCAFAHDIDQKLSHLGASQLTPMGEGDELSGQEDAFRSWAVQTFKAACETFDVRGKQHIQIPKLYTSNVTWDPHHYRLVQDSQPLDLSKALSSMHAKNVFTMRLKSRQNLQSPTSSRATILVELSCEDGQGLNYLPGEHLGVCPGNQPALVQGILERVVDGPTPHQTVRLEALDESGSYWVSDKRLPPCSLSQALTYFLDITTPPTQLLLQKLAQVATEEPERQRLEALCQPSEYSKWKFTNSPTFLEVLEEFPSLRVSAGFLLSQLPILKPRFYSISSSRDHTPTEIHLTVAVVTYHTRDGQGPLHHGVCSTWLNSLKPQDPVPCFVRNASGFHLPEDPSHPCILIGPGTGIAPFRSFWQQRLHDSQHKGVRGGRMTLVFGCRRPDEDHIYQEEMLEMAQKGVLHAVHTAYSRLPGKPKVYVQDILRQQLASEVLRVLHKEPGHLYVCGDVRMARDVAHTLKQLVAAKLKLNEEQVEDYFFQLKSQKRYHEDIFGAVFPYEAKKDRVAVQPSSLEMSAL

# smiles input, unit spec, IC50
data = [
    ("CSC(=N)N", "nM", 3000),
    ("N=C(N)SCCF", "nM", 140),
]

====

# protocol: Partition coefficient measured by octanol/water extraction at pH 6.8
# Type: physicochemical

# smiles input, logD
measured = [
    ("[11CH3]SC(=N)N", -0.04),
]
